Cited source: BigSolDB 2.1

settings: in water, 308.15 K
Measured quantity: solubility (mole fraction)

{"Smiles record": "CS(=O)(=O)c1cccc(C[C@H](NC(=O)c2c(Cl)cc3c(c2Cl)CCN(C(=O)c2ccc4ccoc4c2)C3)C(=O)O)c1", "Result": "3.37e-06"}

---

conditions: in water, 298.15 K

{"Smiles record": "CS(=O)(=O)c1cccc(C[C@H](NC(=O)c2c(Cl)cc3c(c2Cl)CCN(C(=O)c2ccc4ccoc4c2)C3)C(=O)O)c1", "solubility (mole fraction)": "2.31e-06"}

---

conditions: in propylene glycol, 298.15 K

{"Smiles record": "CS(=O)(=O)c1cccc(C[C@H](NC(=O)c2c(Cl)cc3c(c2Cl)CCN(C(=O)c2ccc4ccoc4c2)C3)C(=O)O)c1", "solubility (mole fraction)": 0.00138}
